Each item that follows carries a reported abundance fitness.
B1: POU domain, class 3, transcription factor 3, residues 408 to 463; numbered along this chain, P20264 (parent)
chain: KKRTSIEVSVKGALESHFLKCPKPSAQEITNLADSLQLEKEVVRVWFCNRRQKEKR

Variants of: B1
experiment summary: abundance fitness (aPCA) (normalised: wild type 0, dead -1); higher = more abundant; growth selection in yeast, the domain comes from the species named
experimental context: Homo sapiens
Simply state the number, no unit and no words.

Consider the following illustrative entries.
| sequence string | measured attribute | value observed |
| --- | --- | --- |
| KKRTSIEVSVKGALESHFLKCPKPSAQEITNLADSLQLEKEVVRVWFCNNRQKEKR [R50N] | abundance fitness | -0.919 |
| KKRTSIEVSVKGALKSHFLKCPKPSAQEITNLADSLQLEKEVVRVWFCNRRQKEKR [E15K] | abundance fitness | -0.582 |

Input line: // abundance fitness lookup, key: KKRPSIEVSVKGALESHFLKCPKPSAQEITNLADSLQLEKEVVRVWFCNRRQKEKR [T4P]
Output line: -0.257

Input line: // abundance fitness lookup, key: KKRTSIEVSVKGALESHFLKCPKPSAQEITNLADSLQLEKEVVRVWFCNREQKEKR [R51E]
Output line: -0.126

Input line: // abundance fitness lookup, key: KKRTSIEVSVKGALESHFLKCPKPSAQEITNLADSLQLEKEVVRVWFCERRQKEKR [N49E]
Output line: 0.041

Input line: // abundance fitness lookup, key: KKRTSIEVSVKGALESHFLKCPIPSAQEITNLADSLQLEKEVVRVWFCNRRQKEKR [K23I]
Output line: -0.065

Input line: // abundance fitness lookup, key: KKRTSIEVSVKGALESHFLKCPKPSAQEITNLADSLQLEKEVVRVWFNNRRQKEKR [C48N]
Output line: 0.211

Input line: // abundance fitness lookup, key: KKRTSIEVSVGGALESHFLKCPKPSAQEITNLADSLQLEKEVVRVWFCNRRQKEKR [K11G]
Output line: -0.135

Input line: // abundance fitness lookup, key: KKRTSIEVSVKGALESHFLKCPKPSAQEITNLADSLQLQKEVVRVWFCNRRQKEKR [E39Q]
Output line: -0.322

Input line: // abundance fitness lookup, key: KKRTSIEVSVKGALESHFLKCPWPSAQEITNLADSLQLEKEVVRVWFCNRRQKEKR [K23W]
Output line: -0.084

Cited source: the Human Domainome abundance scans (Beltran et al. 2025)
